FYI, the data here is from PubChem BioAssay (NCI).

# System: LOX IMVI melanoma
# method: NCI tumour cell line growth inhibition, 48 h
assayMetric: TGI

GET /value?item= CNS(=O)(=O)Nc1nccc(Cc2c(C)c3ccc(Oc4ncccn4)cc3oc2=O)c1F &field=TGI returns > 100 µM

GET /value?item= CC(C)(CCCCC(C)(C)NC1=NCCO1)NC1=NCCO1 &field=TGI returns > 10 µM

GET /value?item= CC(C)(C)OC(=O)/N=C/c1c(O)c2ccccc2oc1=O &field=TGI returns > 100 µM

GET /value?item= C/C=C(/CCC1NCCc2c1[nH]c1ccccc21)[Si](C)(C)C (stereo not given) &field=TGI returns 15.2 µM

GET /value?item= C#CCCCCCC(=O)N[C@H]1C=C[C@@H]2/C=C(C)/C=C/[C@@H](C)[C@H]([C@H](C)[C@H](O)[C@@H](C)NC(C)=O)OC(=O)/C=C/C=C(C)\C=C\[C@]2(C)C1 &field=TGI returns < 0.004 µM

GET /value?item= O=c1c(-c2ccccc2)c(SCCCN2CCCCC2)n(-c2ccccc2)c(=S)n1-c1ccccc1 &field=TGI returns 32.4 µM
